TESTED SYSTEM: T1, soluble human FcRn (human, UniProt P55899 24-297; P61769 21-119, biotinylated (Sulfo-NHS-LC-Biotin) in the ELISA; amine-coupled to CM5 chip in SPR)
T1 construct: also called shFcRn; biotinylated shFcRn
T1 sequence (P55899 24-297 limits assumed, chain 1 of 2): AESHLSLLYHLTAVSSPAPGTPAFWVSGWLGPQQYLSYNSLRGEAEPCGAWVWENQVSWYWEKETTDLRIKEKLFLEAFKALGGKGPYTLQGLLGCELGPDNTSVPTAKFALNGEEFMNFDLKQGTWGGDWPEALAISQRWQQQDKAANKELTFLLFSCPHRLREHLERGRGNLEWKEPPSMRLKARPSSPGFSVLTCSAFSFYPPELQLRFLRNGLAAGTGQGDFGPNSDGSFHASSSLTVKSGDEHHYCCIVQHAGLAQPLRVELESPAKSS
T1 sequence (P61769 21-119 limits assumed, chain 2 of 2): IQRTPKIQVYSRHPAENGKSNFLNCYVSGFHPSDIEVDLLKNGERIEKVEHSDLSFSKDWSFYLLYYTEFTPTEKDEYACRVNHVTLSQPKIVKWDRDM
PROTOCOL: SPR, pH 6
pKd: −log10 of the molar value.
PROPERTY: pKd

In [3]: df
Out[3]:
                                     binder  reported_measurement
0  QRFXTGHFFGLYPCNGP (Pen at 4; D-Phe at 9; NMeLeu at 11; disulfide; C-terminal amide) [Peptide No. 153]                  6.62
1  QRFXTGHFFPLYPCNGP (Pen at 4; D-Phe at 9; D-Pro at 10; disulfide; C-terminal amide) [Peptide No. 150]                  6.14
2  QRFXTGHFAALYPCNGP (Pen at 4; D-Ala at 9 and 10; disulfide; C-terminal amide) [Peptide No. 148]                  6.35
3  QRFXTGHFGHLYPCNGP (Pen at 4; D-His at 10; disulfide; C-terminal amide) [Peptide No. 42]                  5.70
